- TESTED TARGET: recombinant human COX-1 (Homo sapiens)
- Sequence (P23219 24-599): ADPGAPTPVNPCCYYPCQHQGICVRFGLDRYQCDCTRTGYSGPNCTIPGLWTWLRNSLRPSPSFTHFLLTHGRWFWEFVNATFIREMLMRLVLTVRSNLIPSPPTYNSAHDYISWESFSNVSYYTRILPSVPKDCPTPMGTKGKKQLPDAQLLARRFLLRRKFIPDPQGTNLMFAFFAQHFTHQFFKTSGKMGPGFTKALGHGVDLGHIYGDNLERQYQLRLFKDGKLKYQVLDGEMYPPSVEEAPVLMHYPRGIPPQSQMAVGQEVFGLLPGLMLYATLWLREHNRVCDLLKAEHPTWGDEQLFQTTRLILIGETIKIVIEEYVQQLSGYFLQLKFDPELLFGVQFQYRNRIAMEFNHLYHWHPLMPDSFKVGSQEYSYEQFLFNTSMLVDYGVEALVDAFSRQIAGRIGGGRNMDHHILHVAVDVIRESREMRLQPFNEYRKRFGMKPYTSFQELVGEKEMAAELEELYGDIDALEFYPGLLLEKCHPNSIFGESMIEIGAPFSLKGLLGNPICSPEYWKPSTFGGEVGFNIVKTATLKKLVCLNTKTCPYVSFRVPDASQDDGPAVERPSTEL
- ASSAY INFO: In vitro enzyme assay, recombinant human COX-1
- PROTOCOL CONDITIONS: read-out: IC50 against recombinant human COX-1
RECORDED ENDPOINT: IC50 (µM)

1: COc1ccc(-c2cc(COc3ccccc3O)nn2-c2ccc(S(N)(=O)=O)cc2)cc1
2: Cc1ccc(-c2cc(COc3ccccc3O)nn2-c2ccc(S(N)(=O)=O)cc2)cc1
Compare reported IC50 values for 1 and 2 . Which is lower? Record your answer as the label of the chosen record. 2

A: COc1ccc(-c2cc(COc3cccc(O)c3)nn2-c2ccc(S(N)(=O)=O)cc2)cc1
B: COc1ccc(-c2cc(COc3ccc(O)cc3)nn2-c2ccc(S(N)(=O)=O)cc2)cc1
Choose between A and B : whose measured IC50 value is numerically larger? Record your answer as the label of the chosen record. B
